molecular target: Catechol O-methyltransferase (Homo sapiens) (UniProt P21964); test: Confirmatory Screen for Target Class Profiling of Small Molecule Inhibitors of Methyltransferases (AID 1745852); details: MTase-Glo luminescence, SAH detection, recombinant enzyme; measured here: COMT max response; stronger effect = lower value
Sequence (P21964 whole entry, looked up): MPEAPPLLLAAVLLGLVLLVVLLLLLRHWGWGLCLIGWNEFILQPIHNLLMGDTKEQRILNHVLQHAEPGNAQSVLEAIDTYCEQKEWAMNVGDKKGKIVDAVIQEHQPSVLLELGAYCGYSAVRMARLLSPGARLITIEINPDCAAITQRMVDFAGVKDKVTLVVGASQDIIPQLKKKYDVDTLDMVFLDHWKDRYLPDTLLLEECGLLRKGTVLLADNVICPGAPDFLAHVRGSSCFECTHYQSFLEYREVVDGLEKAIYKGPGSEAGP
Recorded measurements of activity, one per entry
quantity-kind: activity (%)

molecule: CCN1CCN(Cc2ccc(NC(=O)Nc3ccc(Oc4cc(NC)ncn4)cc3)cc2C(F)(F)F)CC1
quantity-kind: activity
units-label: %
obs-value: -1.25
--
molecule: CC(O)(CC(=O)O)CC(=O)OCc1ccc(O[C@@H]2O[C@H](CO)[C@@H](O)[C@H](O)[C@H]2O)cc1 (some centres undefined)
quantity-kind: activity
units-label: %
obs-value: -58.1
--
molecule: c1cc(OCCCN2CCCCC2)ccc1CN1CCCCC1
quantity-kind: activity
units-label: %
obs-value: -4.16
--
molecule: CCOC(=O)CCN(C(=O)c1ccc2c(c1)nc(CNc1ccc(C(=N)N)cc1)n2C)c1ccccn1
quantity-kind: activity
units-label: %
obs-value: -3.92
--
molecule: C/C=C/c1cc(OC)c2c(c1)[C@@H](C)[C@@H](c1ccc(O)c(OC)c1)O2
quantity-kind: activity
units-label: %
obs-value: -61.3
--
molecule: COc1cc(OC)cc(C(=O)Nc2ccc(Cl)c(-c3nc4ccc(N(C)C)cc4[nH]3)c2)c1
quantity-kind: activity
units-label: %
obs-value: -4.1
--
molecule: CN(C)c1nc(NC2CCC(NCCc3ccc(Br)cc3OC(F)(F)F)CC2)nc2ccccc12 (centres undefined)
quantity-kind: activity
units-label: %
obs-value: -10.3
--
molecule: CN(c1ccccc1CNc1nc(Nc2ccc3c(c2)CC(=O)N3)ncc1C(F)(F)F)S(C)(=O)=O
quantity-kind: activity
units-label: %
obs-value: -5.57
--
molecule: CC(C)c1cccc2c(-c3ccccc3)cc(-c3ccc(-c4ccc(C(=O)O)cc4)[nH]3)nc12
quantity-kind: activity
units-label: %
obs-value: -3.32
--
molecule: Nc1nc(-n2cc(C(=O)O)c(=O)c3cc(F)c(N4CC(O)C4)c(Cl)c32)c(F)cc1F
quantity-kind: activity
units-label: %
obs-value: -21.4
--
molecule: COc1ccc(CCO[C@@H]2O[C@H](CO[C@@H]3OC[C@H](O)[C@H](O)[C@H]3O)[C@@H](O)[C@H](O)[C@H]2O)cc1
quantity-kind: activity
units-label: %
obs-value: -55.1
--
molecule: COc1cc2c(cc1O)CC[C@H]1[C@@H]2CC[C@]2(C)[C@H](O)CC[C@@H]12
quantity-kind: activity
units-label: %
obs-value: -76.8
--
molecule: CNC(=O)c1ccccc1Nc1nc(Nc2ccc(N3CCNCC3)cc2)ncc1Cl
quantity-kind: activity
units-label: %
obs-value: -21.5
--
molecule: CC(C)=CCC(O)/C(C)=C/CO[C@@H]1O[C@H](CO)[C@@H](O)[C@H](O)[C@H]1O (some centres undefined)
quantity-kind: activity
units-label: %
obs-value: -52
--
molecule: CC1=C(CCC(C)O[C@@H]2O[C@H](CO)[C@@H](O)[C@H](O)[C@H]2O)C(C)(C)CCC1=O (some centres undefined)
quantity-kind: activity
units-label: %
obs-value: -64
--
molecule: CN(C)c1nc(NC2CCC(NC(=O)c3ccc(F)c(F)c3)CC2)nc2ccccc12 (centres undefined)
quantity-kind: activity
units-label: %
obs-value: -11.9
--
molecule: COc1cc(NC(=O)Nc2cccc(CNC(=O)O[C@H]3CCOC3)c2)ccc1-c1cnco1
quantity-kind: activity
units-label: %
obs-value: -5.78
--
molecule: CC/C=C\CCO[C@@H]1O[C@H](CO)[C@@H](O)[C@H](O)[C@H]1O
quantity-kind: activity
units-label: %
obs-value: -74.1
--
molecule: C=C1C(=O)OC2CC3(C)C(CC12)C(C)=CC(O)C3OC(C)=O (centres undefined)
quantity-kind: activity
units-label: %
obs-value: -65.4
--
molecule: CNS(=O)(=O)CC1CCC(N(C)c2ncnc3[nH]ccc23)CC1 (centres undefined)
quantity-kind: activity
units-label: %
obs-value: -6.68
--
molecule: O=C(c1ccccc1)c1ccc2nc(NC(=O)c3csc(C4CCN(c5ncnc6ccsc56)CC4)n3)[nH]c2c1
quantity-kind: activity
units-label: %
obs-value: -7.12
--
molecule: CC(C)c1c2cc(-c3ccnc(NC4CCC(NC5CCOCC5)CC4)n3)ccc2nn1C (centres undefined)
quantity-kind: activity
units-label: %
obs-value: -27.8
--
molecule: CCN(CC)CCN(Cc1ccc(-c2ccc(C(F)(F)F)cc2)cc1)C(=O)Cn1c(SCc2ccc(F)cc2)nc(=O)c2c1CCC2
quantity-kind: activity
units-label: %
obs-value: -2.67
--
molecule: CCN1CCN(Cc2ccc(Nc3ncc(F)c(-c4cc(F)c5nc(C)n(C(C)C)c5c4)n3)nc2)CC1
quantity-kind: activity
units-label: %
obs-value: -78.7
--
molecule: COc1ccc(C2(O)CCC(N3CC[C@@H](NC(=O)CNC(=O)c4cccc(C(F)(F)F)c4)C3)CC2)cn1 (some centres undefined)
quantity-kind: activity
units-label: %
obs-value: -5.05
--
molecule: CC(C)c1nc(-c2ccc(NC(=O)Nc3cccc(C(F)(F)F)c3)c3ccccc23)c2c(N)nccn12
quantity-kind: activity
units-label: %
obs-value: -5.14
--
molecule: c1cn2cc(-c3ccc4cn[nH]c4c3)nc(Nc3ccc(N4CCOCC4)cc3)c2n1
quantity-kind: activity
units-label: %
obs-value: -53.7
--
molecule: Cc1nc([C@](C)(O)CO)sc1-c1cnc(N)c(O[C@H](C)c2cc(F)ccc2-n2nccn2)c1
quantity-kind: activity
units-label: %
obs-value: -59.6
--
molecule: COc1cc2nc(N3CCC(N4CCCCC4)CC3)nc(NC3CCCCCC3)c2cc1OC
quantity-kind: activity
units-label: %
obs-value: -39.3
--
molecule: CC1=CC(=O)C2(OC3OC(C)C(O)C(OC(=O)/C=C/c4ccccc4)C3O)C=COC(OC3OC(CO)C(O)C(O)C3O)C12 (centres undefined)
quantity-kind: activity
units-label: %
obs-value: -48.2
--
molecule: C=C1C(=O)OC2/C=C(\CO)CC/C=C(\C=O)CC(OC(=O)CC(C)C)C12 (centres undefined)
quantity-kind: activity
units-label: %
obs-value: -71
--
molecule: CC1(C)CC[C@]2(C(=O)O[C@@H]3O[C@H](CO)[C@@H](O)[C@H](O)[C@H]3O)CC[C@]3(C)C(=CCC4[C@@]5(C)C[C@@H](O)[C@H](O)[C@@](C)(CO)C5CC[C@]43C)C2[C@@H]1O (some centres undefined)
quantity-kind: activity
units-label: %
obs-value: -79.9
--
molecule: CC1=CC(=O)CC(C)(C)C1CCC(C)O[C@@H]1O[C@H](CO[C@@H]2OC[C@@H](O)[C@H](O)[C@H]2O)[C@@H](O)[C@H](O)[C@H]1O (some centres undefined)
quantity-kind: activity
units-label: %
obs-value: -54.5
--
molecule: CC(Oc1cc(-n2cnc3ccc(CN4CCN(C)CC4)cc32)sc1C(N)=O)c1ccccc1C(F)(F)F (centres undefined)
quantity-kind: activity
units-label: %
obs-value: -36.6

Where these numbers come from: PubChem BioAssay (NCATS)
